- tested_target: Mitogen-activated protein kinase kinase kinase 20 (Homo sapiens, UniProt Q9NYL2)
- Sequence (Q9NYL2 2-800 limits assumed): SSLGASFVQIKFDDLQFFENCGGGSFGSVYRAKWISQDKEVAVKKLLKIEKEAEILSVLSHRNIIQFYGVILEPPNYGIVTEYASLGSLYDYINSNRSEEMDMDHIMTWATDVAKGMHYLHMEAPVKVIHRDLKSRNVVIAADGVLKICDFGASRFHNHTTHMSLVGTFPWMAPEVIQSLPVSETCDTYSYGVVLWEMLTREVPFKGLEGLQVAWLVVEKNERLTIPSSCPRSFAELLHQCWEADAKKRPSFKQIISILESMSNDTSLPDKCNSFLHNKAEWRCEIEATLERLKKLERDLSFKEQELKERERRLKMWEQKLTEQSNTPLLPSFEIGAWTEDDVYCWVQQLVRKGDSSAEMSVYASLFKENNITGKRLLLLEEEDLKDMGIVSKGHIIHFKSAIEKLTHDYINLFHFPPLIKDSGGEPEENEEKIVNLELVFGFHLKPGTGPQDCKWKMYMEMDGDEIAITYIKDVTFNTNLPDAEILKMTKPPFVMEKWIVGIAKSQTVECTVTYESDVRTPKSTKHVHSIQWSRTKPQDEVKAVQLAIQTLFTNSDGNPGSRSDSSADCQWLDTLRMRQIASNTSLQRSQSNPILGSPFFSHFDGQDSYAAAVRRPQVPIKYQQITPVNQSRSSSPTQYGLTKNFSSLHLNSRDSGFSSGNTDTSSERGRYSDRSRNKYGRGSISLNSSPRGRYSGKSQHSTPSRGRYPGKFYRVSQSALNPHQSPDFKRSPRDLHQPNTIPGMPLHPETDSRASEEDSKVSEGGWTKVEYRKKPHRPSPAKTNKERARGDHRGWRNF
- assay_text: Binding affinity to wild-type human partial length ZAK (M1 to L331 residues) expressed in bacterial expression system assessed as residual binding level at 100 nM by Kinomescan method relative to control
outcome_measure: Activity (%)

CCCS(=O)(=O)Nc1ccc(F)c(C(=O)c2n[nH]c3ncc(-c4cccc(O)c4)cc23)c1F :: 0.95
CCCS(=O)(=O)Nc1ccc(F)c(C(=O)c2n[nH]c3ncc(-c4ccc(N)cc4)cc23)c1F :: 2.7
CCCS(=O)(=O)Nc1ccc(F)c(C(=O)c2n[nH]c3ncc(-c4cccc([N+](=O)[O-])c4)cc23)c1F :: 52
CCCS(=O)(=O)Nc1ccc(F)c(C(=O)c2n[nH]c3ncc(-c4ccc(S(=O)(=O)NCC)cc4)cc23)c1F :: 32
CCCS(=O)(=O)Nc1ccc(F)c(C(=O)c2n[nH]c3ncc(-c4ccc(OC)cc4)cc23)c1F :: 1.9
CCCS(=O)(=O)Nc1ccc(F)c(C(=O)c2n[nH]c3ncc(-c4ccc(Cl)c(Cl)c4)cc23)c1F :: 85

A: CCCS(=O)(=O)Nc1ccc(F)c(C(=O)c2n[nH]c3ncc(-c4cccc(N)c4)cc23)c1F
B: CCCS(=O)(=O)Nc1ccc(F)c(C(=O)c2n[nH]c3ncc(-c4ccc(Cl)c(C(F)(F)F)c4)cc23)c1F
## Task Which entry shows the lesser value of Activity here, A or B ? Give the label of your selection.
## Result A

====

- tested_target: Serine/threonine-protein kinase B-raf (Homo sapiens, UniProt P15056)
- Sequence (P15056 whole entry, the tested form may be a part): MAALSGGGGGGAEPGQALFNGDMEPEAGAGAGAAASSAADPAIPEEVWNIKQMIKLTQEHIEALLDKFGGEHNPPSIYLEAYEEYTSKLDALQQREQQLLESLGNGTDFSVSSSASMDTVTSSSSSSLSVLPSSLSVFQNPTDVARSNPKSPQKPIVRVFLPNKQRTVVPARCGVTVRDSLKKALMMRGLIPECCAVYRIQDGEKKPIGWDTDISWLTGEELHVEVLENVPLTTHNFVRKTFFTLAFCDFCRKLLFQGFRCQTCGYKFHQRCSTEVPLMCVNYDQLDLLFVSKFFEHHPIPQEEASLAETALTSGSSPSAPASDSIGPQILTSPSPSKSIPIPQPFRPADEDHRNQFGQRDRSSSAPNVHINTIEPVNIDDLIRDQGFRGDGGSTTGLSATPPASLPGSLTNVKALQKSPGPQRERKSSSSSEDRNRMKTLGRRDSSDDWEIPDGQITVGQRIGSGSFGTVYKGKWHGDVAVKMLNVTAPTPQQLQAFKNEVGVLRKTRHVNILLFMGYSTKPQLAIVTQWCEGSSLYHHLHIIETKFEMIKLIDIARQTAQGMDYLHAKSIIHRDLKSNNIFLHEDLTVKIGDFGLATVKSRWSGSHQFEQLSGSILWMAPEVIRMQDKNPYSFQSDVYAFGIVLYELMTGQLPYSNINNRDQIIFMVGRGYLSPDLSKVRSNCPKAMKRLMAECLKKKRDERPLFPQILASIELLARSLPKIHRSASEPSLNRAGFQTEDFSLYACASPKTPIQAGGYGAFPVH
- assay_text: Binding affinity to wild-type human partial length BRAF (S429 to E741 residues) expressed in mammalian expression system by Kinomescan method
outcome_measure: pKd
Field pKd (float): negative decimal logarithm of the concentration in molar.

## Task Endpoint output: pKd of `Nc1ccc(-c2cnc3[nH]nc(C(=O)c4c(F)ccc(NS(=O)(=O)Cc5ccccc5)c4F)c3c2)cc1` . Value?
## Result 6.21

====

- tested_target: Mitogen-activated protein kinase kinase kinase 20 (Homo sapiens, UniProt Q9NYL2)
- assay_text: Binding affinity to wild-type human partial length ZAK (M1 to L331 residues) expressed in bacterial expression system assessed as residual binding level at 100 nM by Kinomescan method relative to control
outcome_measure: Activity (%)

# example entries with known answers
CCCS(=O)(=O)Nc1ccc(F)c(C(=O)c2n[nH]c3ncc(-c4cccc(OC)c4)cc23)c1F :: 23
CCCS(=O)(=O)Nc1ccc(F)c(C(=O)c2n[nH]c3ncc(-c4ccc(S(=O)(=O)NC(C)=O)cc4)cc23)c1F :: 38
CCCS(=O)(=O)Nc1ccc(F)c(C(=O)c2n[nH]c3ncc(-c4ccc(NS(C)(=O)=O)cc4)cc23)c1F :: 4.3

P: Nc1ccc(-c2cnc3[nH]nc(C(=O)c4c(F)ccc(NS(=O)(=O)Cc5ccccc5)c4F)c3c2)cc1
Q: CCCS(=O)(=O)Nc1ccc(F)c(C(=O)c2n[nH]c3ncc(-c4ccccc4F)cc23)c1F
R: CCCS(=O)(=O)Nc1ccc(F)c(C(=O)c2n[nH]c3ncc(-c4ccc(F)cc4)cc23)c1F
S: CCCS(=O)(=O)Nc1ccc(F)c(C(=O)c2n[nH]c3ncc(-c4cccc(F)c4)cc23)c1F
T: CCCS(=O)(=O)Nc1ccc(F)c(C(=O)c2n[nH]c3ncc(-c4ccc(OC)cc4Cl)cc23)c1F
## Task Order the records, beginning with the lowest Activity and ending with the highest. Response format: the labels, sorted as the prompt asks.
## Result P, R, S, Q, T
(P: 1.8%, R: 4.8%, S: 12%, Q: 32%, T: 74%)
